All values here come from patent US20190071416A1.

assay: Mouse liver microsomes stability test; format: in vitro ADME; conditions: read-out: half-life, t1/2
readout label: half-life (min)
Give bare numbers, in min.

Request: Using the record for CCOC(=O)N1CCN(C(=O)c2ccc3c(Cl)c4c(nc3c2)CCCC4)CC1 [X4, reference compound] , state its measured half-life.
Response: 4

###

Molecular target: SMYD3 (Homo sapiens)
Sequence (Q9H7B4 whole entry): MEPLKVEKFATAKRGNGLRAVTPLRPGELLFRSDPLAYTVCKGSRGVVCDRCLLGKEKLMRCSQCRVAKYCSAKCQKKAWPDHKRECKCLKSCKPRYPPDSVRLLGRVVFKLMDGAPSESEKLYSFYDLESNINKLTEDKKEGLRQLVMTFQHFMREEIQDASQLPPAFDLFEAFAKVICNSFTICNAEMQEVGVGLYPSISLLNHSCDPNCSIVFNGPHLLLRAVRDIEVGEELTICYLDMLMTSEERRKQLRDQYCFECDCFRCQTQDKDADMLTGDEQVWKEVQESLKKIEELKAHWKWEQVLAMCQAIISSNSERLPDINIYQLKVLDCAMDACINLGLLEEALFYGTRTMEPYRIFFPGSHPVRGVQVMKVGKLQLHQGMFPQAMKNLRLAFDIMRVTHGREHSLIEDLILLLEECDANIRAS
Experiment: SMYD3 biochemical assay (MTase-Glo, MAP3K2 peptide substrate)
Details: Table 3; MTase assay, MAP3K2 peptide substrate; read-out: IC50
Procedure: A SMYD3 enzymatic assay was developed using Promega's Methyltransferase-Glo™ reagents. In the assay, SMYD3 catalyzes the methylation of the MAP3K2 peptide substrate by transferring a methyl group from SAM to MAP3K2 peptide and further converts the SAM to SAH. The SMYD3 methyltransferase activity is measured based on the amount of SAH produced from the reaction through the use of coupling enzymes that convert the SAH to ATP. […]
Consider the reported IC50 of an entry and match it to a band in low interval = under 200 nM, middle interval = from 200 nM up to 600 nM, high interval = 600 nM and over

Record excerpt, results attached:
{"compound": "CCCOC(=O)N1CCN(C(=O)c2ccc3c(Cl)c(C)c(-c4ccccc4C)nc3c2)CC1 [B027]", "group label": "high interval"}
{"compound": "C[C@@H]1CN(C(=O)c2ccc3c(Cl)cc(-c4ccn(C)c4)nc3c2)CCN1C(=O)OCCCF [B234]", "group label": "low interval"}

Request: Category of CCCOC(=O)N1CCN(C(=O)c2ccc3c(Cl)cc(-c4cccc(-n5cnnc5)c4)nc3c2)C[C@H]1C [B096] :
Response: middle interval

Request: Category of CCCOC(=O)N1CCN(C(=O)c2ccc3c(Cl)c4c(nc3c2)CCCC4)C(CC(=O)OC)C1 (stereo not shown) [A070] :
Response: high interval

Request: Category of CCCOC(=O)N1CCN(C(=O)c2ccc3c(Cl)cc(C4(F)CC4)nc3c2)CC1 [B263] :
Response: high interval

Request: Category of CCCOC(=O)N1CCN(C(=O)c2ccc3c(Cl)cc(-c4ccc(F)c(CN(C)C)c4)nc3c2)CC1 [B167] :
Response: high interval

Request: Category of CCCOC(=O)N1CCN(C(=O)c2ccc3c(Cl)cc(-c4cc(F)c(O)c(F)c4)nc3c2)[C@@H](C)C1 [B220] :
Response: middle interval

Request: Category of CCCOC(=O)N1CCN(C(=O)c2ccc3c(Cl)c4c(nc3c2)CC(CCN(C)C)CC4)C[C@H]1C (stereo partly shown) [A135] :
Response: low interval

Request: Category of CCCOC(=O)N1CCN(C(=O)c2ccc3c(Cl)cc(-c4ccc(CN)cc4)nc3c2)C[C@H]1C [B064] :
Response: low interval

Request: Category of CCCOC(=O)N1CCN(C(=O)c2ccc3c(Cl)cc(-c4cc[nH]c4)nc3c2)C[C@H]1C [B251] :
Response: low interval

Request: Category of CCCOC(=O)N1CCN(C(=O)c2ccc3c(Cl)c(C)c(-c4cccc([N+](=O)[O-])c4)nc3c2)CC1 [B043] :
Response: high interval

Request: Category of CCCOC(=O)N1CCN(C(=O)c2ccc3c(Cl)cc(-c4ccc(F)cc4)nc3c2)CC1 [B065] :
Response: middle interval

Request: Category of CCCOC(=O)N1CCN(C(=O)c2ccc3c(Cl)cc(-c4ccc(O)c(C)c4)nc3c2)[C@@H](C)C1 [B225] :
Response: middle interval

Request: Category of CCCOC(=O)N1CCN(C(=O)c2ccc3c(Cl)cc(-c4ccc(CO)c(F)c4)nc3c2)CC1 [B257] :
Response: low interval

Request: Category of CCCOC(=O)N1CCN(C(=O)c2ccc3c(Cl)cc(-c4ccc5c(cnn5C)c4)nc3c2)CC1C (stereo not shown) [B155] :
Response: low interval

Request: Category of C[C@@H]1CN(C(=O)c2ccc3c(Cl)cc(-c4ccccc4)nc3c2)CCN1C(=O)c1cn(C2CC2)nn1 [D005] :
Response: low interval
